Each entry below lists one item and its recorded cytotoxicity at 72 h, 50 µM value.
assay text: Cytotoxicity against mouse RAW264.7 cells at 50 uM after 72 hrs by MTT assay
Assay type: cell-based
condition details: read-out: INH
Kindly answer with a numeric value in %, unit omitted.

compound structure string: O=C(Cn1c(=O)oc2cc(Cl)ccc21)NCc1ccccn1
numeric readout: 36.1

Query :: Fill in the blank: the reported cytotoxicity at 72 h, 50 µM of O=C(Cn1c(=O)oc2ccccc21)Nc1nc2ccc([N+](=O)[O-])cc2s1 is ____.
Result :: 12.4

Query :: Fill in the blank: the reported cytotoxicity at 72 h, 50 µM of O=C(Cn1c(=O)oc2ccccc21)Nc1cc(C(F)(F)F)ccc1Cl is ____.
Result :: 12.3

Query :: Fill in the blank: the reported cytotoxicity at 72 h, 50 µM of O=C(Cn1c(=O)oc2cc(Cl)ccc21)Nc1ncc([N+](=O)[O-])s1 is ____.
Result :: 14.3

Query :: Fill in the blank: the reported cytotoxicity at 72 h, 50 µM of O=C(Cn1c(=O)oc2cc([N+](=O)[O-])ccc21)NCc1ccco1 is ____.
Result :: 26.8
